The reported numbers originate from patent US20110081661A1.

# study_target: T1, GIP Receptor (Homo sapiens, UniProt P48546)
# T1 construct: host or cells: HEK293T
# T1 sequence (P48546 22-466): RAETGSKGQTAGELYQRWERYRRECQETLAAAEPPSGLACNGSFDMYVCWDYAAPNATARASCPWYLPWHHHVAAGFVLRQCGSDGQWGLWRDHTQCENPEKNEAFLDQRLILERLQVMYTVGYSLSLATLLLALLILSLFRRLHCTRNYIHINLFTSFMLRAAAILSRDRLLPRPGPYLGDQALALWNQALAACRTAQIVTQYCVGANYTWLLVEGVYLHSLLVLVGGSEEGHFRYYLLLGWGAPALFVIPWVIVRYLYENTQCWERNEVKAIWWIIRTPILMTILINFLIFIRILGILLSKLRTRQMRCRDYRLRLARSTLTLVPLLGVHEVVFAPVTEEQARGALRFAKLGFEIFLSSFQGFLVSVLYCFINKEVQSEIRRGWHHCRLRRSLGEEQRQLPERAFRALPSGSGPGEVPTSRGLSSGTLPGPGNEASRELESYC
# measurement_protocol: GIP receptor-mediated bioluminescence in HEK293T cells with chimeric promiscuous G protein (FIG. 5, Table II)
# Assay type: cell-based
# condition_notes: HEK293T cells, GIP Receptor + promiscuous G protein
So I've got a bunch of molecules here, and I need their Max signal with GIP (RLU × 10^−5) values.
Record the value in RLU × 10^−5, omitting the unit from your answer.

Please fill in: Max signal with GIP (RLU × 10^−5) reported for Cyto-aequorin: Wild-type Aequorin (wt-Aequorin) amino acid sequence, SEQ ID NO:2; cytosolic (protein, listed as Aequorea victoria) MTSKQYSVKLTSDFDNPRWIGRHKHMFNFLDVNHNGKISLDEMVYKASDIVINNLGATPEQAKRHKDAVEAFFGGAGMKYGVETDWPAYIEGWKKLATDELEKYAKNEPTLIRIWGDALFDIVDKDQNGAITLDEWKAYTKAAGIIQSSEDCEETFRVCDIDESGQLDVDEMTRQHLGFWYTMDPACEKLYGGAVP = 1.21

Please fill in: Max signal with GIP (RLU × 10^−5) reported for Mt-obelin: Mitochondrial Wild-type Obelin (mt-Obelin), SEQ ID NO:7 (protein, listed as Obelia longissima) MSVLTPLLLRGLTGSARRLPVPRAKIHSLPPEGKLMSSKYAVKLKTDFDNPRWIKRHKHMFDFLDINGNGKITLDEIVSKASDDICAKLEATPEQTKRHQVCVEAFFRGCGMEYGKEIAFPQFLDGWKQLATSELKKWARNEPTLIREWGDAVFDIFDKDGSGTITLDEWKAYGKISGISPSQEDCEATFRHCDLDNSGDLDVDEMTRQHLGFWYTLDPEADGLYGNGVP = 3.66
